System: MS2 coat protein
Assay: apparent KD of MS2 coat protein; higher = weaker reporter binding
Settings: Eterna round: R107; input ligand: tryptophan 2.4 mM
metric: apparent KD of MS2 coat protein (nM)

[[record]]
residues = "UUAUUUAUAAUUGAUACCAGUUUAAUGGCCGCAAAUCCUGACAUGAGGAUCACCCAUGUAAGCCCUUGGCAGCGGUUAUGGGUUU [XTheo B #25]"
metric = "apparent KD of MS2 coat protein"
numeric_readout = 22.1

[[record]]
residues = "GCUGGGUGCGCAAGGACCUGGCGUUGCGAUACCAGCACGGUAACGUGCCCUUGGCAGCGCACAUGAGGAUCACCCAUGUGGUGCG [#1 Exclusion - Theophylline A Attempt #21 (HarryS)]"
metric = "apparent KD of MS2 coat protein"
numeric_readout = 22.5

[[record]]
residues = "AUAACAUGAGGAUCACCCAUGUAAGCUGAAGGAGCGGACGAAAGUCCAGGUAGGUCGCAGCGUUCCUUCACCUCAUGAGAAGGAG [SSArg-A #30 with U all better]"
metric = "apparent KD of MS2 coat protein"
numeric_readout = 21.6


* * *

Test system: MS2 coat protein
Experiment: apparent KD of MS2 coat protein; designed switch direction (-1 OFF switch, 1 ON switch): -1; higher = weaker reporter binding
Settings: Eterna round: R95; input ligand: microRNA oligo, concentration not stated
metric: apparent KD of MS2 coat protein (nM)

[[record]]
residues = "AGAAGACAUGAGGAUCACCCAUGUAAGGAUAUUGGAGGUUAGGGAUGCUGGAGUUGGACAAGAAGGUACAGGUG [JR_Exclu1_Sub091] (puzzle: Exclusion 1)"
numeric_readout = 46.9

[[record]]
residues = "AAGAAACAUGAGGAUCACCCAUGUGAGGAUAUGUAAAAUAAAAGAAAAGAAAUAAUAAACAGAAGGCACAAAGG [Mat - Mod of Hog D15] (puzzle: Exclusion 1)"
numeric_readout = 30.9

[[record]]
residues = "CAGGAUAGAGGAUAUACAUAGAUACAGGUUCAUGUAAUCCUACAUGAGGAUCACCCAUGUAGAAGGCUAUCCUG [Fiskers Ex 2 - 19] (puzzle: Exclusion 2)"
numeric_readout = 14.8

[[record]]
residues = "AGGUAACAUGAGGAUCACCCAUGUCAGGAUAUCAGUAAGAUUAGAAUAGAGUAGAGGAUGAGAAGGGACUAUAU [Excluse me! 19- Jieux - Exclusion 1] (puzzle: Exclusion 1)"
numeric_readout = 42.7

[[record]]
residues = "UCAUACGUUGAGGAUAUGUCAGUUAGAAUAUUUACAGAAGGCGAUACAUGAGGAUCACCCAUGUUUAUGGGCAU [Ex-6 Malc#5] (puzzle: Exclusion 6)"
numeric_readout = 173

[[record]]
residues = "GCACGGUAAGUGAGGAUAUACCUCUGGAUACAGAGGUAGAAGGCACAUGAGGAUCACCCAUGUCUAAGCCGUGC [Fiskers BMX 4 - 83] (puzzle: Brourd's mod of Exclusion 4)"
numeric_readout = 14.7

[[record]]
residues = "AGCAUGUAAGGAUAUGCAACACGACGUUCAAUCGUCGUGCCGCAGAAGGUACAUGAGGAUCACCCAUGUGCUCC [Xesodied] (puzzle: Exclusion 4)"
numeric_readout = 75.4

[[record]]
residues = "UUUAAUUUUUUUUUUUUACAAGCUUUUUGCUCGUCUUAUACAUGAGGAUCACCCAUGUAAGUGGGAAGUAAAUUAUC [JMF 54] (puzzle: Sensor v3, turn-off variant 2)"
numeric_readout = 184

[[record]]
residues = "UUUUAGAGAGGAUAUAUUAUGUGAAACAUGAGGAUCACCCAUGUAAUAUGAUGGAUGUAAAUAGAAGGCUCAUUUA [JL-ex5-3.06] (puzzle: Exclusion 5)"
numeric_readout = 48.3

[[record]]
residues = "AAGAAACAUGAGGAUCACCCAUGUGAGGAUAUGAAAAAGAAAAGAAAAGAAAGAAGAAUCAGAAGGCACAAAGA [salish99-ex1_r3_080] (puzzle: Exclusion 1)"
numeric_readout = 22.2

[[record]]
residues = "AAGAGUGCAGGAUAUACUUGGUAGGGCGGGUGGAUGGUUUGACAUGAGGAUCACCCAUGUAGAAGGGCAGAGAG [JR_Exclu2_Sub054] (puzzle: Exclusion 2)"
numeric_readout = 31.4

[[record]]
residues = "AGAAGUAGUAACCGAUCCUACAUGAGGAUCACCCAUGUAGCUAGACGUGCACGCGAAGCUCGUCAGACUACCAGAUG [salish99_TOv1_r3_023] (puzzle: Sensor v3, turn-off variant 1)"
numeric_readout = 273

[[record]]
residues = "CGUGACUCAGGAUAUCUAUAAUAUCACAUGAGGAUCACCCAUGUCCAGCGAAAGCUGGAGGGAGAAGGGAGUCACG [Fiskers Ex 5 - 35] (puzzle: Exclusion 5)"
numeric_readout = 164

[[record]]
residues = "UUUUAACAUGAGGAUCACCCAUGUGAGGAUAUCGAAAUUUAUAUUAAUAUUUAUAUAACGAGAAGGCACAUUUU [JMF 55] (puzzle: Exclusion 1)"
numeric_readout = 65.3

[[record]]
residues = "AAAAAGAGAGGAUAUACAUGAGGAUCACCCAUGUGAGGGCACCGCGGGCGCGGGACCCGUAGAAGGCUCAAAAA [Exc;s3-I] (puzzle: Exclusion 3)"
numeric_readout = 14.7

[[record]]
residues = "UUGUACAUAGGAUAUAGUUGUUUCUACAUGAGGAUCACCCAUGUUAUUCCUCUCUCCCUUCUAGAAGGAUGUUUUU [JR_E5_Sub006] (puzzle: Exclusion 5)"
numeric_readout = 43.6

[[record]]
residues = "AAAUACAAGUAAAGAUCCUACAUGAGGAUCACCCAUGUGCUCGUCUUGUAAAGUACUAUCACGAAAGUGAUAGUACA [Sensor 3, v1 - 22] (puzzle: Sensor v3, turn-off variant 1)"
numeric_readout = 31.5

[[record]]
residues = "UCGCUGCGAGGAUAUACAUGAGGAUCACCCAUGUACGGGUCCGGGUUUUCGUCCAUUAGUAGAAGGCGCAGUGA [JL Laongeedie mod 1] (puzzle: Exclusion 3)"
numeric_readout = 136

[[record]]
residues = "AACGUGUGAGGAUAUGCCGUGCCCUUCCGGAAGGAGCGGGUGCAGAAGGCACAUGAGGAUCACCCAUGUCGGCA [Excls4-V] (puzzle: Exclusion 4)"
numeric_readout = 31.4

[[record]]
residues = "UUUUAGAGAGGAUAUAUAAAGUGAAACAUGAGGAUCACCCAUGUAAUUUUAUGGAUGUAAAUAGAAGGCUCAUUUU [Mat - Exclusion 5 - JL mod - D2] (puzzle: Exclusion 5)"
numeric_readout = 34.2

[[record]]
residues = "AUUUUAAUAUAGGAUAUCGAAAUAAUUAUUUAACGAGAAGGAUGAACAUGAGGAUCACCCAUGUGGUAUCAUGG [Mat - Exclusion 6 - JL Mod - D32] (puzzle: Exclusion 6)"
numeric_readout = 159

